Target: UniProtKB P49146
Sequence (P49146 whole entry): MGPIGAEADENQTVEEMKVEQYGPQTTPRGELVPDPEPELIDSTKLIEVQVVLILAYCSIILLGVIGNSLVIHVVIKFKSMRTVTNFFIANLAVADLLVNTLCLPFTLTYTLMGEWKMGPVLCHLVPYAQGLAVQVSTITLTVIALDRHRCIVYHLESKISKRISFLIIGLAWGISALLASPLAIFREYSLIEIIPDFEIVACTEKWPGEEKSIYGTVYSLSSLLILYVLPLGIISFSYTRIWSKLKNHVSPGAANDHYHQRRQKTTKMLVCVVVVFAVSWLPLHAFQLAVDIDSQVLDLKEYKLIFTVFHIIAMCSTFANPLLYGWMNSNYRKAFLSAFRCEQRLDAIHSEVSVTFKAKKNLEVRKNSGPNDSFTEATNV
Assay: Displacement of [125I]-PYY from human Y2R expressed in CHO cell membranes after 60 mins by liquid scintillation method
Where a SMILES comes first, the peptide text is derived from it. [ ]: non-standard residue; d: D form. The star is where a group is joined. ξ: configuration not given here. ξCha = NC(CC1CCCCC1)C(=O)O; Isobutyryl = CC(C)C(=O)*; Aib = CC(C)(N)C(=O)O; ξAbu = CCC(N)C(=O)O
MEASUREMENT_NAME: pIC50
Schema: pIC50 number; meaning minus log10 of the concentration expressed in molar units.

Below are worked cases with known answers.
INSERT INTO results (compound, test_result) VALUES
  ('CCC(NC(=O)[C@H](CCCNC(=N)N)NC(=O)[C@@H](CC(C)C)NC(=O)[C@H](CO)NC(C)=O)C(=O)NC(CC1CCCCC1)C(=O)NC(CC1CCCCC1)C(=O)N[C@@H](CC(N)=O)C(=O)N[C@@H](CC(C)C)C(=O)NC(C)(C)C(=O)N[C@H](C(=O)N[C@@H](CCCNC(=N)N)C(=O)N[C@@H](CCC(N)=O)C(=O)N[C@@H](CCCNC(=N)N)C(=O)NC(CC1CCCCC1)C(N)=O)[C@@H](C)O (stereo partly drawn)', 7.96),
  ('CCC(NC(=O)[C@H](CCCNC(=N)N)NC(=O)[C@H](CC(C)C)NC(C)=O)C(=O)NC(CC1CCCCC1)C(=O)NC(CC1CCCCC1)C(=O)N[C@@H](CC(N)=O)C(=O)N[C@@H](CC(C)C)C(=O)NC(C)(C)C(=O)N[C@H](C(=O)N[C@@H](CCCNC(=N)N)C(=O)N[C@@H](CCC(N)=O)C(=O)N[C@@H](CCCNC(=N)N)C(=O)NC(CC1CCCCC1)C(N)=O)[C@@H](C)O (stereo partly drawn) (Ac-LR[ξAbu][ξCha][ξCha]NL[Aib]TRQR[ξCha]-NH2)', 7.77);

Consider now this further compound.
Ask: So what does the record say about pIC50 for CCC(NC(=O)[C@H](CCCNC(=N)N)NC(=O)C(C)C)C(=O)NC(CC1CCCCC1)C(=O)NC(CC1CCCCC1)C(=O)N[C@@H](CC(N)=O)C(=O)N[C@@H](CC(C)C)C(=O)NC(C)(C)C(=O)N[C@H](C(=O)N[C@@H](CCCNC(=N)N)C(=O)N[C@@H](CCC(N)=O)C(=O)N[C@@H](CCCNC(=N)N)C(=O)NC(CC1CCCCC1)C(N)=O)[C@@H](C)O (stereo partly drawn) (Isobutyryl-R[ξAbu][ξCha][ξCha]NL[Aib]TRQR[ξCha]-NH2) ?
Result: 8.14

Source: ChEMBL document CHEMBL4033754
